- EXPERIMENTAL DETAILS: In vivo pharmacokinetics study in mice
- Parameters: species or system C57BL/6 mice
- MEASUREMENT SETUP: male, C57BL/6, plasma, po; mouse, p.o. 10 mg/kg
READOUT NAME: AUC(0-inf) (µM·h)
Field format: number, assumed µM·h, no unit text.

AUC(0-inf) lookup needed for Cc1c(-c2nc3cc(CN4CC[C@@H](C(=O)O)C4)cc(C#N)c3o2)cccc1-c1cccc2c1CCN2c1nc(C(F)F)nc2cc(CN3CC[C@@H](O)C3)cnc12 , thanks.
9.73

* * *

- EXPERIMENTAL DETAILS: In vivo pharmacokinetics study in mice
- Parameters: species or system C57BL/6 mice
- MEASUREMENT SETUP: male, C57BL/6, plasma, po; mouse, p.o. 10 mg/kg
READOUT NAME: Cmax (nM)
Field format: number, assumed nM, no unit text.

Cmax lookup needed for Cc1c(-c2nc3cc(CN4CC[C@@H](C(=O)O)C4)cc(C#N)c3o2)cccc1-c1cccc2c1CCN2c1nc(C(F)F)nc2cc(CN3CC[C@@H](O)C3)cnc12 , thanks.
680

* * *

- EXPERIMENTAL DETAILS: In vivo pharmacokinetics study in mice
- Set-up: species or system C57BL/6 mice
- MEASUREMENT SETUP: male, C57BL/6, plasma, po; mouse, p.o. 30 mg/kg
- Procedure: Male C57BL/6 mice were used as test animals, and the drug concentration in plasma at different times after intragastric administration of the test compound was determined by LC/MS/MS method. […] Experimental operations: After administration, whole blood was collected for a certain period of time and prepared into plasma. The drug concentration was analyzed by the LC-MS/MS method, and the pharmacokinetic parameters were calculated using Phoenix WinNonlin software (Pharsight, USA)
Known half-life of a selection of compounds
Please report the result as a number followed by the unit.

COc1nc(-c2cccc(-c3cccc4c3CCN4c3nccc4cc(CN5CC[C@@H](O)C5)cnc34)c2Cl)cnc1CNC[C@@H]1CCC(=O)N1	6.9 h

Kindly review the next compound as well.
half-life lookup needed for COc1nc(-c2cccc(-c3cccc4c3CCN4c3nccc4cc(CN5CC[C@@H](O)C5)cnc34)c2Cl)ccc1CNC[C@@H]1CCC(=O)N1 , thanks.
12 h

* * *

- ASSAY TARGET: PD-1/PD-L1 (Homo sapiens (Human))
- Sequence (Q9NZQ7 19-290): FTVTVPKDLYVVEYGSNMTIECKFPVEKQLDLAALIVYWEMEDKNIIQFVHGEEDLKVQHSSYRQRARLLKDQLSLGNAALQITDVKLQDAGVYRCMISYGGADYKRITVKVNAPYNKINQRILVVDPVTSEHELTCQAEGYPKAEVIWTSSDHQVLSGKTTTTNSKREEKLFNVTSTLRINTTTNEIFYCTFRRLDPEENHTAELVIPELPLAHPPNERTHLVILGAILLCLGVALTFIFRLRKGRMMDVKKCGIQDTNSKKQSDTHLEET
- EXPERIMENTAL DETAILS: NFAT assay: TCR Activitor/PD-L1 CHO cells co-cultured with PD-1/NFAT Reporter-Jurkat cells, Bright-Glo readout
- Type: cell-based
- MEASUREMENT SETUP: PD-L1 CHO / PD-1 NFAT Reporter-Jurkat co-culture, 5 hours
READOUT NAME: IC50 (nM)
Field format: number, assumed nM, no unit text.

Recorded IC50, per entry:
COc1nc(-c2cccc(-c3cccc4c3CCN4c3nc(C(F)F)nc4cc(CN5C[C@@H](O)[C@H](O)C5)cnc34)c2Cl)cnc1CNC[C@@H]1COC(=O)N1 [Compound 22]	22.6
COc1nc(-c2cccc(-c3cccc4c3CCN4c3nc(C(F)F)nc4cc(CN5CC[C@@H](O)C5)cnc34)c2Cl)cnc1CNCC(C)(C)C(=O)O [Compound 14]	10.7
Cc1c(-c2nc3cc(CN4CC[C@@H](C(=O)O)C4)cnc3o2)cccc1-c1cccc2c1CCN2c1nc(C(F)F)nc2cc(CN3CC[C@@H](O)C3)cnc12 [Compound 29]	6.03
COc1nc(-c2cccc(-c3cccc4c3CCN4c3nc(C(F)F)nc4cc(CN5CC[C@@H](O)C5)cnc34)c2Cl)ccc1CNC[C@@H]1CCC(=O)N1 [Compound 3]	4.7
COc1nc(-c2cccc(-c3cccc4c3CCN4c3nc(C(F)F)nc4cc(CN5CCC(C)(O)C5)cnc34)c2Cl)cnc1CNC[C@@H]1CCC(=O)N1 (stereo partly drawn) [Compound 18]	3.5

Kindly review the next compound as well.
Recorded IC50 for COc1nc(-c2cccc(-c3cccc4c3CCN4c3nc(C(F)F)nc4cc(CN5CC[C@@H](O)C5)cnc34)c2C)ccc1CN1CC[C@](C)(C(=O)O)C1 [Compound 24] with PD-1/PD-L1 (Homo sapiens (Human)), please?
32.6

* * *

- EXPERIMENTAL DETAILS: In vivo pharmacokinetics study in mice
- Parameters: species or system C57BL/6 mice
- MEASUREMENT SETUP: male, C57BL/6, plasma, iv; mouse, i.v. 1 mg/kg; read-out: Vdss
- Procedure: Male C57BL/6 mice were used as test animals, and the drug concentration in plasma at different times after intragastric administration of the test compound was determined by LC/MS/MS method. […] Experimental operations: After administration, whole blood was collected for a certain period of time and prepared into plasma. The drug concentration was analyzed by the LC-MS/MS method, and the pharmacokinetic parameters were calculated using Phoenix WinNonlin software (Pharsight, USA)
READOUT NAME: Vd
Please report the result as a number followed by the unit.

Vd lookup needed for Cc1c(-c2nc3cc(CN4CC[C@@H](C(=O)O)C4)cc(C#N)c3o2)cccc1-c1cccc2c1CCN2c1nc(C(F)F)nc2cc(CN3CC[C@@H](O)C3)cnc12 [Compound 27] , thanks.
8.97 L/kg

* * *

- EXPERIMENTAL DETAILS: In vivo pharmacokinetics study in mice
- Set-up: species or system C57BL/6 mice
- MEASUREMENT SETUP: male, C57BL/6, plasma, po; mouse, p.o. 10 mg/kg
READOUT NAME: AUC(0-t) (µM·h)
Field format: number, assumed µM·h, no unit text.

AUC(0-t) lookup needed for Cc1c(-c2nc3cc(CN4CC[C@@H](C(=O)O)C4)cc(C#N)c3o2)cccc1-c1cccc2c1CCN2c1nc(C(F)F)nc2cc(CN3CC[C@@H](O)C3)cnc12 [Compound 27] , thanks.
8.91
